Molecular target: UniProtKB P08254
Experiment: Inhibitory activity against matrix metalloprotease-3 (MMP-3)(stromelysin-1).
measured-attribute: Ki (nM)
Numbers only; they are read as nM.

The reported value for CCOCCOP(=O)(c1ccc(OC)cc1)N1Cc2ccccc2CC1C(=O)NO (stereo not given) in terms of Ki is 5.43

The reported value for CCOP(=O)(c1ccccc1F)N1Cc2ccccc2CC1C(=O)NO (stereo not given) in terms of Ki is 47.8

The reported value for COc1ccc(P(=O)(OCCc2ccccc2)N2Cc3ccccc3CC2C(=O)NO)cc1 (stereo not given) in terms of Ki is 8.15

The reported value for CCOP(=O)(c1ccc(OC)cc1)N1Cc2ccsc2CC1C(=O)NO (stereo not given) in terms of Ki is 5.2

The reported value for COc1ccc(P(=O)(OC)N2Cc3ccccc3CC2C(=O)NO)cc1 (stereo not given) in terms of Ki is 2.95

###

Reported log10 of Ki values, Matrix metalloproteinase-9 (Homo sapiens, UniProt P14780).
Use the decimal logarithm of Ki (nM).

The reported value for CCOP(=O)(c1ccc(OC)cc1)N1Cc2nccnc2CC1C(=O)NO (configuration not stated) in terms of log10 of Ki is 0.85

The reported value for CCO[P@@](=O)(c1ccc(OC)cc1)N1Cc2ccccc2CC1C(=O)NO (some centres not stated) in terms of log10 of Ki is 0.70

The reported value for CCOP(=O)(c1ccc(Oc2ccccc2)cc1)N1Cc2ccccc2CC1C(=O)NO (configuration not stated) in terms of log10 of Ki is -1.10

The reported value for CCOP(=O)(c1cccc(F)c1)N1Cc2ccccc2CC1C(=O)NO (configuration not stated) in terms of log10 of Ki is 1.90

The reported value for CCOP(=O)(c1ccc(F)cc1)N1Cc2ccccc2CC1C(=O)NO (configuration not stated) in terms of log10 of Ki is 1.72

The reported value for CCOP(=O)(c1ccc(OC)cc1)N1CCN(C(=O)OCc2ccccc2)CC1C(=O)NO (configuration not stated) in terms of log10 of Ki is 0.72

###

measured-attribute: Ki (nM)
Numbers only; they are read as nM.

Form field Ki for item CCOP(=O)(c1ccccc1)N1Cc2ccccc2CC1C(=O)NO (centres undefined) on Stromelysin-1 (Homo sapiens, UniProt P08254): 34.9

Form field Ki for item CCCCOP(=O)(c1ccc(OC)cc1)N1Cc2ccccc2CC1C(=O)NO (centres undefined) on Stromelysin-1 (Homo sapiens, UniProt P08254): 24

Form field Ki for item COc1ccc(P(=O)(OC(C)C)N2Cc3ccccc3CC2C(=O)NO)cc1 (centres undefined) on Stromelysin-1 (Homo sapiens, UniProt P08254): 24.4

Form field Ki for item CCOP(=O)(c1ccc(-c2ccccc2)cc1)N1Cc2ccccc2CC1C(=O)NO (centres undefined) on Stromelysin-1 (Homo sapiens, UniProt P08254): 4.36

###

Reported pKi values, Disintegrin and metalloproteinase domain-containing protein 17 (Homo sapiens).
Keep it numeric: pKi is minus log10 of the concentration in mol/L.

The reported value for COc1ccc(P(=O)(OCCc2ccccn2)N2Cc3ccccc3CC2C(=O)NO)cc1 (stereo not given) in terms of pKi is 6.92

The reported value for COc1ccc(P(=O)(OCC2CCCCC2)N2Cc3ccccc3CC2C(=O)NO)cc1 (stereo not given) in terms of pKi is 7.81

The reported value for CCOP(=O)(c1ccc(Oc2ccccc2)cc1)N1Cc2ccccc2CC1C(=O)NO (stereo not given) in terms of pKi is 8.10

The reported value for CCO[P@@](=O)(c1ccc(OC)cc1)N1Cc2ccccc2CC1C(=O)NO (stereo not given in full) in terms of pKi is 8.15

The reported value for CCOP(=O)(c1ccccc1F)N1Cc2ccccc2CC1C(=O)NO (stereo not given) in terms of pKi is 7.13

The reported value for CCOP(=O)(c1ccc(N)cc1)N1Cc2ccccc2CC1C(=O)NO (stereo not given) in terms of pKi is 7.12

The reported value for CCOP(=O)(c1ccc(OC)cc1)N1Cc2ccsc2CC1C(=O)NO (stereo not given) in terms of pKi is 8.19

The reported value for CCOP(=O)(c1ccc(OC)cc1)N1CCN(C(=O)OCc2ccccc2)CC1C(=O)NO (stereo not given) in terms of pKi is 8.10

The reported value for CCOP(=O)(CCc1ccccc1)N1Cc2ccccc2CC1C(=O)NO (stereo not given) in terms of pKi is 7.85

The reported value for COc1ccc(P(=O)(OC)N2Cc3ccccc3CC2C(=O)NO)cc1 (stereo not given) in terms of pKi is 8.05

###

Molecular target: Disintegrin and metalloproteinase domain-containing protein 9 (Homo sapiens, UniProt Q13443)
Sequence (Q13443 whole entry, the tested form may be a part): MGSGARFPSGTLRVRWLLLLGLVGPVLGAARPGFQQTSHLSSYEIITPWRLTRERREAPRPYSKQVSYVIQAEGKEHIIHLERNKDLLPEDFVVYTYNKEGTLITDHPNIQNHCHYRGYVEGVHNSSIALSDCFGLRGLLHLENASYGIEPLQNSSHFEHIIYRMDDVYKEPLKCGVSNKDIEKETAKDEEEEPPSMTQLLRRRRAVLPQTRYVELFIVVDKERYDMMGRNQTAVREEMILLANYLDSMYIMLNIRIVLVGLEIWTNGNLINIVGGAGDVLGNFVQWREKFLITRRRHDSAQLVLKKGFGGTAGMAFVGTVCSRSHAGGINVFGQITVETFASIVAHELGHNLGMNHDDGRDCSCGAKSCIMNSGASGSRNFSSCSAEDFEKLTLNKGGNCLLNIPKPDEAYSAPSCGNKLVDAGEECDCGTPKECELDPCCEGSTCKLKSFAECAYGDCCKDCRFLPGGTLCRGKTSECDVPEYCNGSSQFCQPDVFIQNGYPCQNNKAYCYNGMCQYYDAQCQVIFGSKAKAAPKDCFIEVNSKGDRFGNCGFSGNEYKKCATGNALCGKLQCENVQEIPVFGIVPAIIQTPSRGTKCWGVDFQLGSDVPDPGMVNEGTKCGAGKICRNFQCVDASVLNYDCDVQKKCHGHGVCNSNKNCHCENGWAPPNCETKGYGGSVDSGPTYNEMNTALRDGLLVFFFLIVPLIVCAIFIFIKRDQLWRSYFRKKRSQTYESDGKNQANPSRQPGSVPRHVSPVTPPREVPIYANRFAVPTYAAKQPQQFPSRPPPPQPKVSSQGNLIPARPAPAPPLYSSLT
Test: Inhibition of the heparin binding epidermal growth factor (HB-EGF) release from fibrosarcoma HT1080 transfectants expressing […] (AP) tagged HB-EGF stimulated by 12-O-tetradecanoylphorbol 13-acetate(TPA).
pIC50: −log10 of the molar value.
Use 6 as the dividing line for pIC50, with the line itself on the YES side and lower values as NO.

Say whether CCO[P@](=O)(c1ccc(OC)cc1)N1Cc2ccccc2C[C@H]1C(=O)NO shows pIC50 of 6 or more.
NO

Say whether CCOP(=O)(c1ccccc1)N1Cc2ccccc2CC1C(=O)NO (configuration not stated) shows pIC50 of 6 or more.
YES

Say whether CCOP(=O)(c1ccc(OC)cc1)N1CCCC1C(=O)NO (configuration not stated) shows pIC50 of 6 or more.
NO

Say whether CCOCCOP(=O)(c1ccc(OC)cc1)N1Cc2ccccc2CC1C(=O)NO (configuration not stated) shows pIC50 of 6 or more.
YES

Say whether CCOCCOc1ccc(P(=O)(OCC)N2Cc3ccccc3CC2C(=O)NO)cc1 (configuration not stated) shows pIC50 of 6 or more.
YES

Say whether CCO[P@@](=O)(c1ccc(OC)cc1)N1Cc2ccccc2C[C@H]1C(=O)NO shows pIC50 of 6 or more.
NO

Say whether CCCCCCOP(=O)(c1ccc(OC)cc1)N1Cc2ccccc2CC1C(=O)NO (configuration not stated) shows pIC50 of 6 or more.
NO

Say whether CCOP(=O)(c1ccc(OC)cc1)N1Cc2cc(N)ccc2CC1C(=O)NO (configuration not stated) shows pIC50 of 6 or more.
YES

Say whether CCOP(=O)(c1ccc(C)cc1)N1Cc2ccccc2CC1C(=O)NO (configuration not stated) shows pIC50 of 6 or more.
NO

Say whether CCOP(=O)(c1ccncc1)N1Cc2ccccc2CC1C(=O)NO (configuration not stated) shows pIC50 of 6 or more.
NO

Say whether COc1ccc(P(=O)(OCCc2ccccn2)N2Cc3ccccc3CC2C(=O)NO)cc1 (configuration not stated) shows pIC50 of 6 or more.
YES

Say whether COc1ccc(P(=O)(OC)N2Cc3ccccc3CC2C(=O)NO)cc1 (configuration not stated) shows pIC50 of 6 or more.
YES

###

Molecular target: Disintegrin and metalloproteinase domain-containing protein 9 (Homo sapiens, UniProt Q13443)
Experiment: Inhibition of the heparin binding epidermal growth factor (HB-EGF) release from fibrosarcoma HT1080 transfectants expressing […] (AP) tagged HB-EGF stimulated by 12-O-tetradecanoylphorbol 13-acetate(TPA).
Would you kindly list IC50 for each of these compounds?
Numbers only; they are read as nM.

The reported value for CCOP(=O)(c1ccc(Oc2ccncc2)cc1)N1Cc2ccccc2CC1C(=O)NO (stereo not given) in terms of IC50 is 660

The reported value for CCOP(=O)(c1ccccc1F)N1Cc2ccccc2CC1C(=O)NO (stereo not given) in terms of IC50 is 1060

The reported value for COc1ccc(P(=O)(OCC2CCCCC2)N2Cc3ccccc3CC2C(=O)NO)cc1 (stereo not given) in terms of IC50 is 1340

The reported value for CCOP(=O)(c1cccs1)N1Cc2ccccc2CC1C(=O)NO (stereo not given) in terms of IC50 is 890

The reported value for CCOP(=O)(c1ccc(N)cc1)N1Cc2ccccc2CC1C(=O)NO (stereo not given) in terms of IC50 is 660

Value source: ChEMBL document CHEMBL1135723
